Experiment: Pharmacokinetic experiment in male CD-1 mice (IV and PO)
Assay type: in vivo
Conditions: mouse, plasma, IV 1 mg/kg
Observed property: clearance (mL/min/kg)
Numeric only. Scale: mL/min/kg

Item: C=CC(=O)N1CCN(c2c(C#N)c(=O)n(-c3ccccc3C(C)C)c3cc(-c4c(C)ccc5[nH]ncc45)c(Cl)cc23)[C@@H](C)C1 (single isomer, unassigned) [Compound I-2-2] | clearance: 16.7

###

Test: Pharmacokinetic experiment in male CD-1 mice (IV and PO)
Format: in vivo
Settings: mouse, plasma, PO 3 mg/kg
Observed property: Cmax (ng/mL)
Give the quantity in ng/mL, number only.

So for C=CC(=O)N1CCN(c2c(C#N)c(=O)n(-c3ccccc3C(C)C)c3cc(-c4c(C)ccc5[nH]ncc45)c(Cl)cc23)[C@@H](C)C1 (single isomer, unassigned) , the logged Cmax turned out to be 220

###

Assay: Pharmacokinetic experiment in male CD-1 mice (IV and PO)
Assay type: in vivo
Conditions: mouse, plasma, IV 1 mg/kg
Observed property: Vd (L/kg)
Provide the reading as a plain figure in L/kg.

Reported Vd ( C=CC(=O)N1CCN(c2c(C#N)c(=O)n(-c3ccccc3C(C)C)c3cc(-c4c(C)ccc5[nH]ncc45)c(Cl)cc23)[C@@H](C)C1 (single isomer, unassigned) ) = 1.17
